# TESTED ON: human CB2 receptors (Homo sapiens, UniProt P34972)
# Construct: (cDNA clone) CNR0200000
# Sequence (P34972 whole entry): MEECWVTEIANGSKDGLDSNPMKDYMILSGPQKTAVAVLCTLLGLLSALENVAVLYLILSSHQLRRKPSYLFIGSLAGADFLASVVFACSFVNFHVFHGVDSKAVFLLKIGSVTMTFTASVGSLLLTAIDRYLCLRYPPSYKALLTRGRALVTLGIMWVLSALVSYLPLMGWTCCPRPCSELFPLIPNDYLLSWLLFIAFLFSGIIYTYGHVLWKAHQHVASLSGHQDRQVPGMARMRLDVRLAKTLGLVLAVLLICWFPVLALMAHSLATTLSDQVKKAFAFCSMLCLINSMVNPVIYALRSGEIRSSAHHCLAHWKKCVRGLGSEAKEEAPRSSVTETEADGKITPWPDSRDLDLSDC
# TEST NAME: cAMP assay in HEK-293 cells, hCB2 agonist
# Format: cell-based
# SETUP CONDITIONS: inhibition of forskolin-stimulated cAMP, HEK-293 cells; read-out: hCB2 EC50 (cAMP ag)
# Procedure: Functional assays which monitor G-protein coupled receptor or downstream cellular responses can be used to characterize potential CB1 receptor and/or CB2 receptor agonist or antagonist activities. Direct activation (or inhibition of activation) can be monitored using a GTPγS assay (membrane-based assay) or cAMP assay (whole cell-based assay). cAMP assays were performed in HEK-293 cells stably expressing human CB1 or CB2 receptors. […]
RECORDED ENDPOINT: EC50

Reported EC50 ( COc1ncc(C(=O)c2cc3cc(C)n(CCN4CCOCC4)c3s2)cn1 [Compound 118] ) = 100 to 1000 nM

The value of EC50 measured for the molecule Cc1cc2cc(C(=O)c3cccc(Cl)c3Cl)sc2n1S(=O)(=O)N1CCOCC1 [Compound 45] turned out to be < 100 nM

Lab note: measured EC50 of COc1ccc(C(=O)c2cc3cc(C)n(CCN4CCCCC4)c3s2)cc1 [Compound 78] was < 100 nM

So, Cc1cc2cc(C(=O)c3cccc(Cl)c3Cl)sc2n1CCCNS(C)(=O)=O [Compound 37] ? Its EC50 was < 100 nM

# EC50 (molecule: Cc1cc2cc(C(=O)c3ccc(Cl)cc3Cl)sc2n1CCN1CCOCC1 [Compound 10] ) is < 100 nM

Input COc1ccc(C(=O)c2cc3cc(C)n(CCN4CCCC4)c3s2)cn1 [Compound 167] . Output EC50: < 100 nM

// COc1ccc(C(=O)c2cc3cc(C)n(CCCNS(C)(=O)=O)c3s2)c(Cl)c1 [Compound 91] : EC50 value = < 100 nM

Entry COc1ccc(C(=O)c2cc3cc(C)n(CCCCl)c3s2)c(Cl)c1 [Compound 85] , EC50 reported as < 100 nM

Lookup result for COc1ccc(C(=O)c2cc3cc(C)n(CC4CCOCC4)c3s2)cc1 [Compound 62] ; measured EC50: < 100 nM

---

# TESTED ON: human CB1 (hCB1) (Homo sapiens)
# Construct: (cDNA clone) CNR01L000
# Sequence (P21554 whole entry): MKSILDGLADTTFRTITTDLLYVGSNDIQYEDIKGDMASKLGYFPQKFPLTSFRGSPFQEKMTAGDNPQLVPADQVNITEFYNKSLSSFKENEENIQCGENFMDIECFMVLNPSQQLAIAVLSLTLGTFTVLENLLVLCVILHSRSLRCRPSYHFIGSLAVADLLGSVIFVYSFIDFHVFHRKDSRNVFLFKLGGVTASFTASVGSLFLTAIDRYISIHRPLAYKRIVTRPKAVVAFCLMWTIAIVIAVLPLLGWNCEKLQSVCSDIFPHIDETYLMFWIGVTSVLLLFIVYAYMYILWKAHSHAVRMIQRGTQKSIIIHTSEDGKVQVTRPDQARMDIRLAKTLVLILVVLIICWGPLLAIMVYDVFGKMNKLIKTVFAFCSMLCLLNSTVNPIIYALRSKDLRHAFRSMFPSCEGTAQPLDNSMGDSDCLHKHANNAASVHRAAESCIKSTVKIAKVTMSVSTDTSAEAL
# TEST NAME: 35S GTPγS binding assay, hCB1 agonist
# Format: biochemical
# SETUP CONDITIONS: GTPγS agonist, HEK-293 membranes; read-out: hCB1 EC50 (GTPyS ag)
RECORDED ENDPOINT: EC50

# compound Cc1cc2cc(C(=O)c3cccc(Cl)c3Cl)sc2n1CCc1ccccc1 [Compound 30] ; its EC50 = 100 to 1000 nM

The compound listed as COc1ccc(C(=O)c2cc3cc(C)n(CCN4CCCCC4)c3s2)cc1 [Compound 78] has a reported EC50 of < 100 nM

Lab note: measured EC50 of COc1ccc(C(=O)c2cc3cc(C)n(CCN4CCC(C(F)(F)F)CC4)c3s2)cn1 [Compound 181] was 1000 to 10000 nM

EC50 in this record for COc1ccc(C(=O)c2cc3cc(C)n(CCNC4CCOCC4)c3s2)cn1 [Compound 163] : > 10000 nM

Data point: COc1ccc(C(=O)c2cc3cc(C)n(CCN4CCOC(C)(C)C4)c3s2)cn1 [Compound 162] ; EC50 = > 10000 nM

Cc1cc2cc(C(=O)c3cccc(Cl)c3Cl)sc2n1S(=O)(=O)CC1CCOCC1 [Compound 46] has a reported EC50 of < 100 nM

Sure, the documented EC50 for Cc1cc2cc(C(=O)c3cc(Cl)ccc3Cl)sc2n1CCN1CCOCC1 [Compound 35] is 100 to 1000 nM

For reference, reported EC50 for COc1ccc(C(=O)c2cc3cc(C)n(CC4CCC(F)(F)CC4)c3s2)cn1 [Compound 170] stands at < 100 nM

Kindly note the recorded EC50 for COc1ccc(C(=O)c2cc3cc(C)n(CCNC4CCOC4)c3s2)cn1 (stereo not drawn) [Compound 164] , which is > 10000 nM
